- Target entity: D2 receptor (Homo sapiens, UniProt P14416)
- Sequence (P14416 whole entry): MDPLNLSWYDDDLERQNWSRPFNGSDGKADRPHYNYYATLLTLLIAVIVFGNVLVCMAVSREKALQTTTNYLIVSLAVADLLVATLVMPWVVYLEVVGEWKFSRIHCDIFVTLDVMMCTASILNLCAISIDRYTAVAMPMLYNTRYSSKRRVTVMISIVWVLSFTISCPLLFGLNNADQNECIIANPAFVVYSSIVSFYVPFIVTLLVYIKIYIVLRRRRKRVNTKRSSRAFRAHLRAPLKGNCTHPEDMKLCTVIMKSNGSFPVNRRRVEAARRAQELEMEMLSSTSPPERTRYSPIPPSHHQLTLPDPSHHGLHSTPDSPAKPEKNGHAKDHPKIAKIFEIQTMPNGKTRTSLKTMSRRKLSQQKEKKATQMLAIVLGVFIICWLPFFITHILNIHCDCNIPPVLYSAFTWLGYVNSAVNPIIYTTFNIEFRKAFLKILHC
- Test summary: [3H]Thymidine uptake assay for D2 intrinsic activity
- Assay type: cell-based
- Measurement setup: Table 1; test compound 1 μM; 1 μM Quinpirole = 100% intrinsic activity
Value kind: Emax at 1 µM (%)

// solved cases for Emax at 1 µM follow
Compound | Value kind | Measured result
O=c1ccc2ccc(OCCCCN3CCN(c4ccccc4C(F)(F)F)CC3)nc2[nH]1 | Emax at 1 µM | 41
O=C1COc2ccc(CCCCCN3CCN(c4cccc(Cl)c4Cl)CC3)nc2N1 | Emax at 1 µM | 27
Cc1nc(OCCCCN2CCN(c3cccc4ccccc34)CC2)nc2[nH]c(=O)c(F)cc12 | Emax at 1 µM | 34
O=c1ccc2cnc(OCCCCN3CCN(c4cccc5c4CCC5)CC3)cc2[nH]1 | Emax at 1 µM | 20
CC1(C)CC(=O)Nc2nc(OCCCCN3CCN(c4cccc5ccccc45)CC3)ccc21 | Emax at 1 µM | 31

(I) O=C1CCc2ccc(OCCCCN3CCN(c4cccc5c4CC(F)(F)C5)CC3)nc2N1
(II) O=c1ccc2cnc(NCCCCN3CCN(c4cccc(Cl)c4Cl)CC3)cc2[nH]1
INPUT: For I and II , which recorded Emax at 1 µM is lower? Respond with the label that goes with your answer.
OUTPUT: I
(I: 27%, II: 54%)
